# experimental_system: T1, His-tagged cynomolgus monkey TfR ectodomain (cyTFRC_89_760; mature protein) (cynomolgus monkey (Macaca fascicularis), UniProt Q5RDH6 89-760 (Pongo abelii entry))
# T1 construct: also called cTfR; cTfR ectodomain
# T1 chain: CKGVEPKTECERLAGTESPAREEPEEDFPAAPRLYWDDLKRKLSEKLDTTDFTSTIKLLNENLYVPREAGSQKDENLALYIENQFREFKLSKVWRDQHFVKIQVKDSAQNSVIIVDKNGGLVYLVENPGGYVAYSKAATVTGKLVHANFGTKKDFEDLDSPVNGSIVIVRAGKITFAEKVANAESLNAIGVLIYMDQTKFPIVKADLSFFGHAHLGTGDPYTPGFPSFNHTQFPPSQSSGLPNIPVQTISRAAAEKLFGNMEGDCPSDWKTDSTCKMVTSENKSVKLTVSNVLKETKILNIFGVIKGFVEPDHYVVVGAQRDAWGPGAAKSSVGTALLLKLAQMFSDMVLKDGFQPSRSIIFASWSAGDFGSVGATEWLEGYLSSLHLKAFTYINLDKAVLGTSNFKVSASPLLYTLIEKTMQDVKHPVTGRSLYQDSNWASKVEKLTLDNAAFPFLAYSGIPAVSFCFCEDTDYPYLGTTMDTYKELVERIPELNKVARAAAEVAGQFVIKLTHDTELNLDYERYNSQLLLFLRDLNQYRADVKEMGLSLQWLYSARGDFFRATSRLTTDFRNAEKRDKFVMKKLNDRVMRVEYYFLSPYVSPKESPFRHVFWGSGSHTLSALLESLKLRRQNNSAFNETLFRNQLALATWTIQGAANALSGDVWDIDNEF
# assay_method_text: SPR, His-tagged TfR ectodomain captured on anti-His, 1:1 fit
assay_metric: Kd (nM)
Number only, in nM; omit the unit.

1) 531_1L2_variant17 Fab (Fab, V domains shown, Humanized Fab; The His-tag was removed with TEV protease before SPR) VH: QVQLVQSGAEVKKPGASVKVSCKASDYTFTRYWLNWVRQAPGQGLEWIGMIDPSVSETHYAQKFQGRATLTVDKSTSTAYMELSSLRSEDTAVYYCSQIRLPYYYAMDSWGQGTTVTVSS VL: DIQMTQSPSSLSASVGDRVTITCRASQDISSFLNWYQQKPGKAVKLLIYYTSRLQSGVPSRFSGSGSGTDYTLTISSLQPEDFATYFCQQGNTLPRTFGGGTKVEIK | 28.9

In the following, a different binder is considered.
Value of measured Kd for the entry 531v25 Fab (Fab, V domains shown, The His-tag was removed with TEV protease before SPR) VH: QVQLVQSGAEVKKPGASVKVSCKASGYTFTRYYLNWVRQAPGQGLEWIGMIDPSVSETHYAQKFQGRATLTVDKSTSTAYMELSSLRSEDTAVYYCSQIRLPYYYAMDSWGQGTTVTVSS VL: DIQMTQSPSSLSASVGDRVTITCRASQDISSFLNWYQQKPGKAPKLLIYYTSRLQSGVPSRFSGSGSGTDYTLTISSLQPEDFATYYCQQGNTLPRTFGGGTKVEIKR : 55.8

Source: patent US20240226314A1
